Entry source: patent US11760761B2

target: PD-1/PD-L1 interaction (Homo sapiens (Human), UniProt Q9NZQ7); assay: PD-1/PD-L1 NFAT Reporter Assay (Jurkat T cells / PD-L1 expressing CHO cells co-culture); conditions: co-culture 6 hrs at 37° C., luciferase
Sequence (Q9NZQ7 19-290): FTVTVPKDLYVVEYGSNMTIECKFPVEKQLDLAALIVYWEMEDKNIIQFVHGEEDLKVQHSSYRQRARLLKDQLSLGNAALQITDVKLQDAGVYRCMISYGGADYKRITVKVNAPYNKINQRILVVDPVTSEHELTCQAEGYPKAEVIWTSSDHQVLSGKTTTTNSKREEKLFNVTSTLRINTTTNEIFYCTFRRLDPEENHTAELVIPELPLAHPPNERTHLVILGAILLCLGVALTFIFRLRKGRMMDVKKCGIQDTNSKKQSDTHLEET
endpoint label: EC50

Below, each entry is followed by its recorded EC50 result.
molecule	endpoint label	result
COc1cc(-c2cccc(-c3cccc(-c4cnc(CN5CC6(CCC(=O)N6)C5)c(OC)n4)c3Cl)c2Cl)cc2c1[C@@H](N1CC(C(=O)O)C1)CC2 (single isomer, unassigned)	EC50	100 to 1000 nM
COc1nc(-c2cccc(-c3cccc(-c4cc5c(c(OC)n4)C(N4CCC(F)(F)C4)CC5)c3Cl)c2Cl)cnc1CN1CC2(CCC(=O)N2)C1 (stereo not drawn)	EC50	100 to 1000 nM
COc1nc(-c2cccc(-c3cccc(-c4cc5c(c(OC)n4)CCN(CC(=O)O)C5)c3Cl)c2Cl)cnc1CN1CC(C)(O)C1	EC50	10 to 100 nM
COc1nc(-c2cccc(-c3cccc(-c4cc5c(c(OC)n4)[C@@H](NC[C@@H]4CCC(=O)N4)CC5)c3Cl)c2Cl)cnc1CN1CC2(CCCO2)C1	EC50	≤ 10 nM

COc1nc(-c2cccc(-c3cccc(-c4cc5c(c(OC)n4)[C@H](N4CC6(CN(C(C)=O)C6)C4)CC5)c3Cl)c2Cl)cnc1CNC[C@@H]1CCC(=O)N1 (single isomer, unassigned) yielded EC50 of 10 to 100 nM

Sure, the documented EC50 for COc1nc(-c2cccc(-c3cccc(-c4cc5c(c(OC)n4)CCN(CC(=O)O)C5)c3Cl)c2Cl)cnc1CN1CC(O)C1 is 10 to 100 nM

Looking up COc1cc(-c2cccc(-c3cccc(-c4cnc(CN5CC6(CCC(=O)N6)C5)c(OC)n4)c3Cl)c2Cl)cc2c1[C@H](N1CC3(CCC(=O)N3)C1)CC2 (single isomer, unassigned) , I found its EC50 recorded as 100 to 1000 nM

The reported value for COc1nc(-c2cccc(-c3cccc(-c4cc5c(c(OC)n4)[C@@H](NC[C@@H]4CCC(=O)N4)CC5)c3Cl)c2Cl)cnc1CN1CC(F)(F)C1 in terms of EC50 is 10 to 100 nM

// EC50 lookup, molecule = COc1nc(-c2cccc(-c3cccc(-c4cc5c(c(OC)n4)[C@H](N4CC(C(=O)O)C4)CC5)c3Cl)c2Cl)cnc1CN1C[C@@H](O)[C@@H]1C (single isomer, unassigned) , result: 100 to 1000 nM

EC50 for COc1nc(-c2cccc(-c3cccc(-c4cc5c(c(OC)n4)[C@@H](NC[C@@H]4CCC(=O)N4)CC5)c3Cl)c2Cl)cnc1CN1CCCC1 is ≤ 10 nM

response.value for COc1nc(-c2cccc(-c3cccc(-c4cc5c(c(OC)n4)[C@@H](NC[C@@H]4CCC(=O)N4)CC5)c3Cl)c2Cl)cc(C)c1CN1CC2(C1)CN(C(C)=O)C2 (field: EC50) = ≤ 10 nM

Documented EC50 of COc1nc(-c2cccc(-c3cccc(-c4cc5c(c(OC)n4)[C@@H](NC[C@@H]4CCC(=O)N4)CC5)c3Cl)c2Cl)ccc1CNC[C@@H]1CCC(=O)N1 : ≤ 10 nM
